Catalogue of GI50 values
- Test system: RPMI-8226
- experiment notes: NCI tumour cell line growth inhibition, 48 h
Active and inactive are the calls of the source. No stated cut-off is given here; in the data, active = GI50 up to about 1.1 µM and inactive = higher.

Problem: Dear colleague, please send me the reported GI50 for COc1cc2c(cc1OC)C1Cc3ccc(OC)c(OC)c3C[N+]1([O-])CC2 (stereo not given) when you can.
Result: 74.5 µM (inactive)

Problem: Dear colleague, please send me the reported GI50 for Cc1cc(Cl)ccc1NC(=O)C1C(=O)N(c2ccc(Cl)cc2C)C(=O)/C1=N\N (stereo not given) when you can.
Result: 25.4 µM (inactive)

Problem: Dear colleague, please send me the reported GI50 for O=C1c2ccccc2CN1c1ccc(O)cc1 when you can.
Result: > 100 µM (inactive)

Problem: Dear colleague, please send me the reported GI50 for C/C(CCn1[nH]c(=O)ccc1=O)=N\NC(=O)C(=O)NN when you can.
Result: > 100 µM (inactive)

Problem: Dear colleague, please send me the reported GI50 for O=Cc1cn(CCCCCn2cc(C=O)c3ccccc32)c2ccccc12 when you can.
Result: > 100 µM (inactive)

---

Catalogue of GI50 values
- Test system: OVCAR-3
- experiment notes: NCI tumour cell line growth inhibition, 48 h
Activity calls are given as the source filed them. Cut-off read from the data, not from the text of the source: active = GI50 up to about 1.1 µM and inactive = higher.

Consider the reported GI50 for these molecules:
molecule	GI50
CC(/C=C/c1ccccc1)=N\NC(=S)N/N=C(C)/C=C/c1ccccc1	5.64 µM (inactive)
C=CC(=O)NCCC(=O)OCn1cc(F)c(=O)[nH]c1=O	10.5 µM (inactive)
COC(=O)C1c2c(c3ccccc3n2C(=O)OC)CCN2CCC1C(S(=O)(=O)c1ccccc1)C2=O (stereo not drawn)	> 100 µM (inactive)
CCOC(=O)C(=O)NCCCN1CCOCC1	> 100 µM (inactive)

Problem: Dear colleague, please send me the reported GI50 for CC(=O)OCCN(C1=NCCN1)/[N+](C=c1ccc(=C=[N-])cc1)=C/c1ccc(C#N)cc1 when you can.
Result: > 100 µM (inactive)

Problem: Dear colleague, please send me the reported GI50 for CC(NC(=O)OCc1ccccc1)NC(=O)OC(C)(C)C (stereo not drawn) when you can.
Result: > 100 µM (inactive)

Problem: Dear colleague, please send me the reported GI50 for Oc1ccc2ccccc2c1/N=N/c1ccsc1 when you can.
Result: > 100 µM (inactive)

Problem: Dear colleague, please send me the reported GI50 for CCN(CC)c1nc(NC2CCCCC2)c2nc(N(CC)CC)nc(NC3CCCCC3)c2n1 when you can.
Result: > 100 µM (inactive)

Problem: Dear colleague, please send me the reported GI50 for O=P(OCc1ccccc1)(OCc1ccccc1)C(O)/C=C/c1ccccc1 (stereo not drawn) when you can.
Result: 20.9 µM (inactive)

---

- Test system: M19-MEL
- experiment notes: NCI tumour cell line growth inhibition, 48 h
Activity calls are given as the source filed them. Cut-off read from the data, not from the text of the source: active = GI50 up to about 1.1 µM and inactive = higher.
Select the matching outcome among 1.0 (active), 0.0 (inactive)

molecule	assigned category
CCC(C)CN1C(=O)NC(Cc2ccccc2)C1=O (configuration not stated)	0.0

Problem: What did the test return for CC(=O)O[C@H]1C(=O)[C@@]2(C)C([C@H](OC(=O)c3ccccc3)[C@]3(O)C[C@H](OC(=O)[C@H](O)[C@H](NC(=O)c4ccccc4)c4ccc(Cl)cc4)C(C)=C1C3(C)C)C1(OC(C)=O)CO[C@@H]1C[C@@H]2O (some centres not stated) ?
Result: 1.0

Problem: What did the test return for C/C(CCn1[nH]c(=O)ccc1=O)=N\NC(=O)C(=O)NN ?
Result: 0.0

Problem: What did the test return for COC(=O)C(=O)C(C(=O)C(=O)Nc1cc([N+](=O)[O-])ccc1C#N)c1nc2ccccc2nc1O (configuration not stated) ?
Result: 0.0

Problem: What did the test return for COC(=O)[C@H]1N[C@@H](C(=O)OC)C23CCC[C@H]2CC[C@]1(C(OC)OC)C3 ?
Result: 0.0

Problem: What did the test return for O=c1c2cc3c(=O)n(CCc4ccccc4CO)c(=O)c3cc2c(=O)n1CCc1ccccc1CO ?
Result: 0.0

Problem: What did the test return for O=C(n1c2ccccc2c2nnc(S)nc21)C(F)(F)F ?
Result: 0.0

Problem: What did the test return for Cc1ccc(-n2c3nc(=O)n(C)c(=O)c-3nc3ccccc32)c(C)c1 ?
Result: 0.0

Problem: What did the test return for O=c1cc(CO)oc2c3c(cc(O)c12)OCC(COC1OC(CO)C(O)C(O)C1O)=CC3 (configuration not stated) ?
Result: 0.0

Problem: What did the test return for Nc1nc(N)c2nc(-c3ccco3)cnc2n1 ?
Result: 0.0

Problem: What did the test return for COC(=O)c1ccccc1NC(=O)C(=O)CC(=O)CC(c1ccccc1)c1c(O)c2ccccc2oc1=O (configuration not stated) ?
Result: 0.0

Problem: What did the test return for COc1cccc2c1C(=O)c1c(O)c3c(c(O)c1C2=O)CC(O)(C(O)CO)CC3OC1CC(N2CCOCC2)C(O)C(C)O1 (configuration not stated) ?
Result: 1.0

Problem: What did the test return for Cc1c2n(c(=O)[nH]c1=O)C1OC(CO)C(N=[N+]=[N-])C1O2 (configuration not stated) ?
Result: 0.0

Problem: What did the test return for COC(=O)C1=C(C(=O)OC)C2(c3ccccc3)OC1(c1ccccc1)c1cc3ccccc3cc12 ?
Result: 0.0

Problem: What did the test return for O=C1/C(=C/c2ccccc2)CN(C(=O)CCN2CCCC2)C/C1=C\c1ccccc1 ?
Result: 0.0

Problem: What did the test return for NC(=S)N/N=C1\C(=O)N(CCc2ccccc2)C(=O)C1C(=O)NCCc1ccccc1 (configuration not stated) ?
Result: 0.0

Problem: What did the test return for Nc1nc(SCc2ccccc2Cl)c2[nH]cnc2n1 ?
Result: 0.0

The measurements presented in this section are drawn from ChEMBL document CHEMBL1201862.
